All values here come from the NIST ThermoML archive (doi:10.1021/je060139a).

Test: refractive index (Na D-line) (dimensionless)
Conditions: 298.18 K; 101.33 kPa; Liquid; Standard Abbe refractometry
endpoint: refractive index
Just the number, please, no unit after it.

Some compounds with known refractive index results, for comparison:
compound	refractive index
CCOC(=O)CC(C)C [ethyl 3-methylbutanoate]	1.39401
COC(=O)c1ccccc1 [methyl benzoate]	1.51467
CCC(=O)OCc1ccccc1 [benzyl propanoate]	1.49498
CCOC(=O)CC(C)=O [ethyl 3-oxobutanoate]	1.4166
CC(=O)OCc1ccccc1 [benzyl ethanoate]	1.49982

Req: Any idea what its refractive index is? The compound is CCOC(=O)c1ccccc1O [ethyl 2-hydroxybenzoate]
Resp: 1.52022

----------
Assay: xn = mol fraction of the nth substance listed
Details: 298.18 K, Wilhelmy plate method, x1 = 0.15
We begin with a simple list: items and their reported surface tension liquid-gas.
I only need the number, in mN/m, no unit after it.

compound	surface tension liquid-gas (mN/m)
CCC(=O)OCc1ccccc1 [benzyl propanoate] + CCO	24.64
CCOC(=O)c1ccccc1O [ethyl 2-hydroxybenzoate] + CCO	24.55
COC(=O)c1ccccc1 [methyl benzoate] + CCO	24.51
CC(=O)OCc1ccccc1 [benzyl ethanoate] + CCO	24.57
CCOC(=O)CC(C)C [ethyl 3-methylbutanoate] + CCO	22.58

Now let's try a different one.
Req: Requested field: surface tension liquid-gas. Item: CCOC(=O)CC(C)=O [ethyl 3-oxobutanoate] + CCO
Resp: 23.83

----------
Experiment: xn = mol fraction of the nth substance listed
Settings: 318.15 K, Wilhelmy plate method, x1 = 0.35
endpoint: surface tension liquid-gas (mN/m)
Reply with just the number (in mN/m).

Example entries begin here.
molecule	reported
CC(=O)OCc1ccccc1 [benzyl ethanoate] + CCO	25.03
CCOC(=O)CC(C)C [ethyl 3-methylbutanoate] + CCO	20.99
COC(=O)c1ccccc1 [methyl benzoate] + CCO	25.2
CCOC(=O)CC(C)=O [ethyl 3-oxobutanoate] + CCO	23.83
CCOC(=O)c1ccccc1O [ethyl 2-hydroxybenzoate] + CCO	24.67

Req: Which surface tension liquid-gas is reported for this molecule? CCC(=O)OCc1ccccc1 [benzyl propanoate] + CCO
Resp: 24.78

----------
Test: xn = mol fraction of the nth substance listed
Conditions: 298.18 K, Wilhelmy plate method, x1 = 0.3
endpoint: surface tension liquid-gas (mN/m)
A number alone suffices; assume mN/m.

molecule	unit-of-measurement	surface tension liquid-gas
COC(=O)c1ccccc1 [methyl benzoate] + CCO	mN/m	26.66
CCOC(=O)CC(C)C [ethyl 3-methylbutanoate] + CCO	mN/m	22.79
CC(=O)OCc1ccccc1 [benzyl ethanoate] + CCO	mN/m	26.36

Req: Which surface tension liquid-gas value is on record for CCOC(=O)CC(C)=O [ethyl 3-oxobutanoate] + CCO ?
Resp: 25.38

Req: Next molecule: CCOC(=O)c1ccccc1O [ethyl 2-hydroxybenzoate] + CCO
Resp: 26.15

Req: Same read-out for CCC(=O)OCc1ccccc1 [benzyl propanoate] + CCO ?
Resp: 26.3

----------
Assay: xn = mol fraction of the nth substance listed
Conditions: 318.15 K, Wilhelmy plate method, x1 = 0.95
Mark criterion not met for surface tension liquid-gas values under 30 mN/m, and criterion met for everything at or above.

Example cases with answers are listed next.
compound	discrete-label
CCOC(=O)c1ccccc1O [ethyl 2-hydroxybenzoate] + CCO	criterion met
CCC(=O)OCc1ccccc1 [benzyl propanoate] + CCO	criterion met
CCOC(=O)CC(C)C [ethyl 3-methylbutanoate] + CCO	criterion not met
COC(=O)c1ccccc1 [methyl benzoate] + CCO	criterion met

# next compound below
Req: Is the recorded value of surface tension liquid-gas equal to or greater than 30 mN/m for this compound? CC(=O)OCc1ccccc1 [benzyl ethanoate] + CCO
Resp: criterion met

----------
Assay: xn = mol fraction of the nth substance listed
Settings: 308.15 K, Wilhelmy plate method, x1 = 0.75
Numbers after ± are expanded uncertainties.
endpoint: surface tension liquid-gas
Don't forget the unit after the number, please.

Previously resolved entries follow.
compound	surface tension liquid-gas
CC(=O)OCc1ccccc1 [benzyl ethanoate] + CCO	31.24 ± 0.4 mN/m
COC(=O)c1ccccc1 [methyl benzoate] + CCO	31.2 ± 0.41 mN/m
CCOC(=O)c1ccccc1O [ethyl 2-hydroxybenzoate] + CCO	30.3 ± 0.4 mN/m
CCOC(=O)CC(C)=O [ethyl 3-oxobutanoate] + CCO	28.89 ± 0.41 mN/m

Req: Item under review: CCOC(=O)CC(C)C [ethyl 3-methylbutanoate] + CCO . Reported surface tension liquid-gas?
Resp: 22.22 ± 0.41 mN/m

Req: Would you kindly repeat that for CCC(=O)OCc1ccccc1 [benzyl propanoate] + CCO ?
Resp: 29.96 ± 0.41 mN/m

----------
Settings: 298.18 K, Wilhelmy plate method
endpoint: surface tension liquid-gas (mN/m)
State the answer as a number, implicitly in mN/m.

molecule	reported
COC(=O)c1ccccc1 [methyl benzoate]	37.2
CCOC(=O)CC(C)=O [ethyl 3-oxobutanoate]	32.3
CCOC(=O)CC(C)C [ethyl 3-methylbutanoate]	23.5
CC(=O)OCc1ccccc1 [benzyl ethanoate]	36.4
CCO [ethanol]	22.3

Req: // query surface tension liquid-gas value for entry CCOC(=O)c1ccccc1O [ethyl 2-hydroxybenzoate]
Resp: 36.3

Req: Can you handle CCC(=O)OCc1ccccc1 [benzyl propanoate] next?
Resp: 34.8

----------
Assay: xn = mol fraction of the nth substance listed
Conditions: 318.15 K, Wilhelmy plate method, x1 = 0.85
yes means recorded surface tension liquid-gas is 30 mN/m or above; no means it is below 30 mN/m.

compound	discrete-label
CC(=O)OCc1ccccc1 [benzyl ethanoate] + CCO	yes
COC(=O)c1ccccc1 [methyl benzoate] + CCO	yes
CCOC(=O)c1ccccc1O [ethyl 2-hydroxybenzoate] + CCO	yes

Req: Threshold query (surface tension liquid-gas >= 30 mN/m) on CCOC(=O)CC(C)C [ethyl 3-methylbutanoate] + CCO
Resp: no

Req: Moving on to the next compound: CCOC(=O)CC(C)=O [ethyl 3-oxobutanoate] + CCO
Resp: no

----------
Test: xn = mol fraction of the nth substance listed
Details: 318.15 K, Wilhelmy plate method, x1 = 0.3
endpoint: surface tension liquid-gas (mN/m)
Give just the number in mN/m; leave the unit off.

Worked set:
molecule	surface tension liquid-gas, mN/m
CCOC(=O)c1ccccc1O [ethyl 2-hydroxybenzoate] + CCO	24.2
COC(=O)c1ccccc1 [methyl benzoate] + CCO	24.6
CC(=O)OCc1ccccc1 [benzyl ethanoate] + CCO	24.4
CCC(=O)OCc1ccccc1 [benzyl propanoate] + CCO	24.3
CCOC(=O)CC(C)=O [ethyl 3-oxobutanoate] + CCO	23.37

Req: I'd like to know its surface tension liquid-gas. The molecule in question is CCOC(=O)CC(C)C [ethyl 3-methylbutanoate] + CCO
Resp: 20.94

----------
Assay: refractive index (Na D-line) (dimensionless); xn = mol fraction of the nth substance listed
Details: 318.15 K; 100.5 kPa; Liquid; Standard Abbe refractometry; x1 = 0.45
Reported refractive index values are given for each entry in this list.
// keep it numeric: no unit symbol after the value

Req: Given CCOC(=O)CC(C)C [ethyl 3-methylbutanoate] + CCO , state its recorded refractive index.
Resp: 1.37383

----------
Readings of surface tension liquid-gas for the listed molecules
Experiment: xn = mol fraction of the nth substance listed
Settings: 308.15 K, Wilhelmy plate method, x1 = 0.4
Reply numerically in mN/m, unit not repeated.

// below: answered molecules
molecule	surface tension liquid-gas, mN/m
CC(=O)OCc1ccccc1 [benzyl ethanoate] + CCO	26.72
CCOC(=O)CC(C)C [ethyl 3-methylbutanoate] + CCO	21.96
CCC(=O)OCc1ccccc1 [benzyl propanoate] + CCO	26.3
CCOC(=O)CC(C)=O [ethyl 3-oxobutanoate] + CCO	25.32
CCOC(=O)c1ccccc1O [ethyl 2-hydroxybenzoate] + CCO	26.08

Now consider the entry below.
Req: # get_value(readout='surface tension liquid-gas', item= COC(=O)c1ccccc1 [methyl benzoate] + CCO )
Resp: 26.8

----------
Assay: refractive index (Na D-line) (dimensionless); xn = mol fraction of the nth substance listed
Settings: 318.15 K; 100.5 kPa; Liquid; Standard Abbe refractometry; x1 = 0.95
refractive index listing for selected compounds.
Give only the figure.

// known answers, use as guide
compound	refractive index
CCOC(=O)CC(C)C [ethyl 3-methylbutanoate] + CCO	1.38384
CCOC(=O)c1ccccc1O [ethyl 2-hydroxybenzoate] + CCO	1.50814
CCOC(=O)CC(C)=O [ethyl 3-oxobutanoate] + CCO	1.4068

Req: For the compound shown here, CCC(=O)OCc1ccccc1 [benzyl propanoate] + CCO , give the reported refractive index.
Resp: 1.48366

Req: Also CC(=O)OCc1ccccc1 [benzyl ethanoate] + CCO , if possible.
Resp: 1.48783

Req: Again, but for COC(=O)c1ccccc1 [methyl benzoate] + CCO
Resp: 1.50144

----------
Experiment: xn = mol fraction of the nth substance listed
Details: 288.15 K, Wilhelmy plate method, x1 = 0.4
± gives the expanded uncertainty stated by the source.
surface tension liquid-gas for assorted molecules
Answer by giving the amount and then stating its unit.

Examples with answers:
molecule	surface tension liquid-gas
COC(=O)c1ccccc1 [methyl benzoate] + CCO	29.04 ± 0.4 mN/m
CC(=O)OCc1ccccc1 [benzyl ethanoate] + CCO	28.7 ± 0.4 mN/m
CCOC(=O)c1ccccc1O [ethyl 2-hydroxybenzoate] + CCO	28.1 ± 0.4 mN/m

Req: Param item = CCOC(=O)CC(C)C [ethyl 3-methylbutanoate] + CCO ; retrieve measured surface tension liquid-gas.
Resp: 23.76 ± 0.4 mN/m

Req: What do you get for CCC(=O)OCc1ccccc1 [benzyl propanoate] + CCO ?
Resp: 28.3 ± 0.4 mN/m

Req: Please do the same for CCOC(=O)CC(C)=O [ethyl 3-oxobutanoate] + CCO as well.
Resp: 27.28 ± 0.4 mN/m
